I'd be grateful if you could share measured % inhibition of SMAD7 mRNA expression for these entries.
- System: murine Smad7 mRNA
- test details: Dose-dependent inhibition of murine Smad7 mRNA in bEND cells, electroporation (Example 5, Study 2)
- Type: cell-based, mouse
- cond: 0.25 μM, electroporation, approximately 16 hours
Kindly answer with a numeric value in %, unit omitted.

Exam item: Consider the substance 736697 (antisense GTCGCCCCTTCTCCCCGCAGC; chemistry not fully specified) [compound 736697] and give its recorded % inhibition of SMAD7 mRNA expression.
Marked response: 1

Exam item: Could you please provide reported % inhibition of SMAD7 mRNA expression for 790615 (CCAATGAGAATGCTTC; 3-10-3 cEt gapmer, further chemistry not given here) [compound 790615] ? Thanks!
Marked response: 7

Exam item: Return value of % inhibition of SMAD7 mRNA expression for input 798781 (CGTAAGATTCACAGCA; 3-10-3 cEt gapmer, further chemistry not given here) [compound 798781] , no commentary.
Marked response: 0

Exam item: Provide % inhibition of SMAD7 mRNA expression value for the following substance: 830025 (antisense TTTGTAAATCGAAAGC; 3-10-3 cEt gapmer, further chemistry not given here) [compound 830025]
Marked response: 15

Exam item: Report measured % inhibition of SMAD7 mRNA expression; entry is 830037 (antisense CTATTGGCTGATCTGG; 3-10-3 cEt gapmer, further chemistry not given here) [compound 830037]
Marked response: 0

Exam item: Give a short answer stating reported % inhibition of SMAD7 mRNA expression for 830121 (AGAATCAAGCCCTGGC; 3-10-3 cEt gapmer, further chemistry not given here) [compound 830121] .
Marked response: 0

###

- test details: Oligonucleotide concentration in tissues by LC-MS/MS after subcutaneous administration in beagle dogs (Example 8)
- Assay type: in vivo
- cond: 30 mg/kg subcutaneous, 48 hours after the last dose, kidney
I'd appreciate it if you could supply Full length oligonucleotide, Kidney values for the items below.
Only the number, expressed in µg/g, is required.

Exam item: # return recorded Full length oligonucleotide, Kidney for input 830037 (antisense CTATTGGCTGATCTGG; 3-10-3 cEt gapmer, further chemistry not given here) [compound 830037]
Marked response: 894

Exam item: Output Full length oligonucleotide, Kidney of 830025 (antisense TTTGTAAATCGAAAGC; 3-10-3 cEt gapmer, further chemistry not given here) [compound 830025]
Marked response: 1470

Exam item: Name the recorded Full length oligonucleotide, Kidney of the substance listed here: 790615 (CCAATGAGAATGCTTC; 3-10-3 cEt gapmer, further chemistry not given here) [compound 790615]
Marked response: 1156

###

- System: human SMAD7 mRNA
- test details: Dose-dependent inhibition of human SMAD7 mRNA expression in Hep3B cells (Example 3, Study 1 and 2)
- Assay type: cell-based
- cond: 740 nM, electroporation, approximately 16 hours, Study 2, relative to untreated control cells
Strand notation (5' to 3'): a small letter for the sugar, then the base; units joined by * are phosphorothioate-linked, units joined directly phosphodiester-linked; [ ] holds rarer units or linkages, { } end groups; capitals alone tell only the bases. k = constrained ethyl (cEt); [5mC] = 5-methylcytosine; d = 2'-deoxy (DNA)
Provide the reported % inhibition of SMAD7 mRNA expression of each item.
Could you give me the number in %? Just the number is fine.

Exam item: Provide measured % inhibition of SMAD7 mRNA expression value, entry: 799751 (antisense kG*kA*kG*d[5mC]*dT*dA*dA*dT*dG*dA*d[5mC]*dA*d[5mC]*kT*kG*kG) [compound 799751]
Marked response: 11

Exam item: Input 799712 (antisense kA*kT*kA*dG*dA*dT*dT*dA*dT*d[5mC]*d[5mC]*dA*dA*kG*kT*kA) [compound 799712] , output reported % inhibition of SMAD7 mRNA expression.
Marked response: 27

Exam item: Dear colleague, please send me the reported % inhibition of SMAD7 mRNA expression for 830207 (kA*kG*kG*dT*dG*dA*d[5mC]*dT*d[5mC]*dA*dT*d[5mC]*dA*kG*kG*k[5mC]; antisense) [compound 830207] when you can.
Marked response: 49

Exam item: Please report the measured % inhibition of SMAD7 mRNA expression for 798781 (CGTAAGATTCACAGCA; 3-10-3 cEt gapmer, further chemistry not given here) [compound 798781]
Marked response: 46

Exam item: Name the recorded % inhibition of SMAD7 mRNA expression of the substance listed here: 799631 (k[5mC]*k[5mC]*kA*dA*dA*dT*d[5mC]*dA*d[5mC]*dA*dA*dA*dG*k[5mC]*kA*kG; antisense) [compound 799631]
Marked response: 0

Exam item: Return the recorded % inhibition of SMAD7 mRNA expression value; entry: 790732 (kG*k[5mC]*kT*dT*dA*dT*dT*dT*d[5mC]*dA*dT*dG*dT*kG*kG*kT; antisense) [compound 790732]
Marked response: 70
